# tested.on: mutant MGL (Homo sapiens, UniProt Q99685, L169S/L176S)
# Sequence (Q99685 whole entry L169S/L176S): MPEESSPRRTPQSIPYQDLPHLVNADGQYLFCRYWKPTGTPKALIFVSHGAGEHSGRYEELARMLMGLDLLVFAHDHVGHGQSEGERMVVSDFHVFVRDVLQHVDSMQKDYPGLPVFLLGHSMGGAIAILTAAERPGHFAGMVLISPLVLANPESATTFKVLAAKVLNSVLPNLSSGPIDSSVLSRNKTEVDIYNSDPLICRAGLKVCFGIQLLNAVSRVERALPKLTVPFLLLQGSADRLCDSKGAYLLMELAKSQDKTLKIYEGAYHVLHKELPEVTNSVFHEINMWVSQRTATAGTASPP
# measurement.notes: MGL ThermoFluor assay - mutant
# Type: binding
# test.parameters: ThermoFluor thermal stability binding assay, read-out: MGL mutant ThermoFluor Kd
pKd: −log10 of the molar value.
parameter: pKd

{"columns": ["compound", "measurement"],
 "data": [
  ["O=C(c1cscn1)N1CCN(C2CN(C(=O)c3sc4cc(Br)ccc4c3Cl)C2)CC1 [Cpd 333]", 8.41]
]}

[I] O=C(c1cscn1)N1CCN(C2CN(C(=O)c3cc4ccc(C(F)(F)F)cc4s3)C2)CC1 [Cpd 337]
[II] O=C(c1nccs1)N1CCN(C2CN(C(=O)c3cccc4nc(-c5ccco5)[nH]c34)C2)CC1 [Cpd 1252]
[III] O=C(c1ccccc1)N1CCN(C2CN(C(=O)c3ccc(OCc4ccc(C(F)(F)F)c(F)c4)cc3)C2)CC1 [Cpd 395]
Query :: Give the ascending ranking of the items by reported pKd. List the labels in the requested order.
Result :: II, III, I
